protocol.summary: Pharmacokinetic analysis in SD rats (plasma, LC/MS/MS)
Assay type: in vivo, rat
assay.conditions: male, SD, rat, plasma, po, 50 mg/kg, rat, unbound, 50 mg/kg P.O.; read-out: Cmax UB (plasma)
measured.metric: Cmax

Q. Dear colleague, I am looking for the recorded Cmax of the following compound: O=C1NCCN1CC(O)Cn1c2ccc(F)cc2c2cc(F)ccc21 (stereo not shown) [Compound 72]
A. 277 ng/mL

====

Tested on: stable U20S reporter cells harboring Per2-dLuc
protocol.summary: Per2 assay for evaluating the potency of test compounds (circadian luciferase reporter)
Assay type: cell-based
assay.conditions: amplitude of Per2-dLuc luminescence vs log concentration
Under this convention, y denotes EC50 strictly below 800 nM and n denotes EC50 at or above 800 nM.

Known results for compounds:
O=C1N(CC(O)Cn2c3ccccc3c3ccccc32)CCN1C1CCC1 (centres unmarked): y
CC(O)(CN1CCCC(F)(F)C1=O)Cn1c2ccc(F)cc2c2cc(F)ccc21 (centres unmarked): y
CC(O)(CN1CCCN(c2ccccc2)C1=O)Cn1c2ccc(F)cc2c2cc(F)ccc21 (centres unmarked): n
CC(O)(CN1Cc2ccccc2NC1=O)Cn1c2ccc(F)cc2c2cc(F)ccc21 (centres unmarked): y
CC1CCN(CC(C)(O)Cn2c3ccc(F)cc3c3cc(F)ccc32)C(=O)C1 (centres unmarked): y

Q. Criterion: EC50 strictly below 800 nM. Is it met by O=C1C(c2ccccc2)CCN1CC(O)Cn1c2ccc(F)cc2c2cc(F)ccc21 (centres unmarked) ?
A. n

====

protocol.summary: Pharmacokinetic analysis in ICR mice (plasma and liver, LC/MS/MS)
Type: in vivo, mouse
assay.conditions: male, ICR, po; mouse plasma, 50 mg/kg P.O.; read-out: MRT (0-last, hr)
measured.metric: MRT last

Q. Dear colleague, I am looking for the recorded MRT last of the following compound: O=C1NCCN1CC(O)Cn1c2ccc(F)cc2c2cc(F)ccc21 (stereo not shown) [Compound 72]
A. 5.3 h

====

Test system: stable U20S reporter cells harboring Per2-dLuc
protocol.summary: Per2 assay for evaluating the potency of test compounds (circadian luciferase reporter)
Format: cell-based
assay.conditions: amplitude of Per2-dLuc luminescence vs log concentration
measured.metric: pEC50
Numbers only, as −log10 of the molar value.

Below, 3 compounds whose answers are already recorded.
CCC1CC(=O)N(CC(C)(O)Cn2c3ccc(F)cc3c3cc(F)ccc32)C1 (stereo not shown): 6.21
CC(O)(CN1CCCC(C2CCC2)C1=O)Cn1c2ccc(F)cc2c2cc(F)ccc21 (stereo not shown): 5.87
C[C@@](O)(CN1CC[C@H](F)C1=O)Cn1c2ccccc2c2ccccc21: 6.51

Attention now turns to another entry.
Q. Dear colleague, I am looking for the recorded pEC50 of the following compound: "C[C@H]1CCC(=O)N(C[C@@H](O)Cn2c3ccccc3c3ccccc32)C1"
A. 5.95

====

protocol.summary: Pharmacokinetic analysis in ICR mice (plasma and liver, LC/MS/MS)
Assay type: in vivo, mouse
assay.conditions: male, ICR, mouse, liver, po, 50 mg/kg, mouse, unbound, 50 mg/kg P.O.; read-out: Cmax UB (liver)
measured.metric: Cmax (ng/mL)
Answers are plain numbers, in ng/mL.

Q. Dear colleague, I am looking for the recorded Cmax of the following compound: O=C1NCCN1CC(O)Cn1c2ccc(F)cc2c2cc(F)ccc21 (stereo not shown)
A. 288

====

Test system: stable U20S reporter cells harboring Per2-dLuc
protocol.summary: Per2 assay for evaluating the potency of test compounds (circadian luciferase reporter)
Type: cell-based
assay.conditions: amplitude of Per2-dLuc luminescence vs log concentration
measured.metric: EC50 (nM)
Numbers only, in nM.

Below, 2 molecules whose answers are already recorded.
CC1CC(=O)N(CC(O)Cn2c3ccc(F)cc3c3cc(F)ccc32)C1C (stereo not drawn): 299
CC1CCC(=O)N(CC(C)(O)Cn2c3ccc(F)cc3c3cc(F)ccc32)C1 (stereo not drawn): 1220

Provide the reported EC50 of each entry below, same order.
1. O=C1N(CC(O)Cn2c3ccc(F)cc3c3cc(F)ccc32)CCCN1C1CCC1 (stereo not drawn)
2. CC(O)(CN1CCCN(C2CCC2)C1=O)Cn1c2ccc(F)cc2c2cc(F)ccc21 (stereo not drawn)
3. O=C1N(CC(O)Cn2c3ccc(F)cc3c3cc(F)ccc32)CCCN1C1CC1 (stereo not drawn)

A.
1. 440
2. 816
3. 147

Provide the reported EC50 of each entry below, same order.
1. O=C1CCCN1CC(O)Cn1c2ccccc2c2ccccc21 (stereo not drawn)
2. O=C1[C@H]2CC[C@H](C2)N1C[C@H](O)Cn1c2ccc(F)cc2c2cc(F)ccc21
3. CC(O)(CN1CCC(F)C1=O)Cn1c2ccc(F)cc2c2cc(F)ccc21 (stereo not drawn)
4. O=C1C(C2CCCC2)CCCN1CC(O)Cn1c2ccc(F)cc2c2cc(F)ccc21 (stereo not drawn)
5. CCC1CCN(CC(O)Cn2c3ccc(F)cc3c3cc(F)ccc32)C1=O (stereo not drawn)
6. O=C1C(F)CCCN1CC(O)Cn1c2ccc(F)cc2c2cc(F)ccc21 (stereo not drawn)

A.
1: 288; 2: 54; 3: 487; 4: 399; 5: 417; 6: 120

Provide the reported EC50 of each entry below, same order.
1. CC(C)N1CCN(CC(O)Cn2c3ccc(F)cc3c3cc(F)ccc32)C1=O (stereo not drawn)
2. CC(O)(CN1CCCC(F)C1=O)Cn1c2ccc(F)cc2c2cc(F)ccc21 (stereo not drawn)
3. CC1CCN(CC(O)Cn2c3ccc(F)cc3c3cc(F)ccc32)C(=O)C1 (stereo not drawn)
4. C[C@@H]1CCC(=O)N(C[C@H](O)Cn2c3ccccc3c3ccccc32)C1

A.
[605, 909, 137, 280]

Provide the reported EC50 of each entry below, same order.
1. C[C@@H]1CCC(=O)N(C[C@H](O)Cn2c3ccc(F)cc3c3cc(F)ccc32)C1
2. CC(O)(CN1CCCC1=O)Cn1c2ccccc2c2ccccc21 (stereo not drawn)
3. C[C@@H]1CCC(=O)N1C[C@@H](O)Cn1c2ccccc2c2ccccc21

A.
1: 397; 2: 225; 3: 948

====

protocol.summary: Pharmacokinetic analysis in SD rats (plasma, LC/MS/MS)
Format: in vivo, rat
assay.conditions: male, SD, rat, plasma, po, 50 mg/kg, rat, 50 mg/kg P.O.; read-out: Cmax (plasma)
measured.metric: Cmax

Q. Dear colleague, I am looking for the recorded Cmax of the following compound: O=C1NCCN1CC(O)Cn1c2ccc(F)cc2c2cc(F)ccc21 (stereo not shown)
A. 7100 ng/mL

====

protocol.summary: Pharmacokinetic analysis in ICR mice (plasma and liver, LC/MS/MS)
Type: in vivo, mouse
assay.conditions: male, ICR, mouse, plasma, po, 50 mg/kg, mouse plasma, 50 mg/kg P.O.; read-out: Cmax
measured.metric: Cmax (ng/mL)
Answers are plain numbers, in ng/mL.

Q. Dear colleague, I am looking for the recorded Cmax of the following compound: O=C1NCCN1CC(O)Cn1c2ccc(F)cc2c2cc(F)ccc21 (stereo not shown)
A. 1150

====

protocol.summary: Pharmacokinetic analysis in ICR mice (plasma and liver, LC/MS/MS)
Type: in vivo, mouse
assay.conditions: male, ICR, po; mouse plasma, 50 mg/kg P.O.
Procedure: Male ICR mice (weighing 30-40 g, Charles River Laboratories) were used for the experiment with n=3 mice for each experimental group (27 mice total for the study). […] The resultant plasma was frozen using dry ice and then stored at −80° C. until ready for assay. […] Raw data was analyzed using WinNonLin for PK parameters (Cmax, Tmax, elimination t^1/2, MRT (mean residence time), AUC (area under the curve)−(0-last and % extrapolated).
measured.metric: Tmax

Q. Dear colleague, I am looking for the recorded Tmax of the following compound: O=C1NCCN1CC(O)Cn1c2ccc(F)cc2c2cc(F)ccc21 (stereo not shown)
A. 15 to 30 min

====

protocol.summary: Increasing dosages of Compound 72 for 7 days in db/db mice
Format: in vivo, mouse
assay.conditions: male, mouse, plasma, oral, 50 mg/kg, around 8 hours after last dose, read-out: compound level in plasma
measured.metric: concentration at 8 h (nM)
Give bare numbers, in nM.

Q. Dear colleague, I am looking for the recorded concentration at 8 h of the following compound: O=C1NCCN1CC(O)Cn1c2ccc(F)cc2c2cc(F)ccc21 (stereo not shown)
A. 570

====

protocol.summary: Pharmacokinetic analysis in SD rats (plasma, LC/MS/MS)
Assay type: in vivo, rat
assay.conditions: male, SD, po; rat plasma, 50 mg/kg P.O.; read-out: Elimination T1/2 (converted)
measured.metric: half-life (h)
Give bare numbers, in h.

Q. Dear colleague, I am looking for the recorded half-life of the following compound: O=C1NCCN1CC(O)Cn1c2ccc(F)cc2c2cc(F)ccc21 (stereo not shown)
A. 1.87

====

protocol.summary: Increasing dosages of Compound 72 for 7 days in db/db mice
Assay type: in vivo, mouse
assay.conditions: male, mouse, liver, oral, 10 mg/kg, around 8 hours after last dose, read-out: compound level in liver
Description: Significance was accepted when p<0.05.
measured.metric: concentration at 8 h
Quick note: unit goes after the number.

Q. Dear colleague, I am looking for the recorded concentration at 8 h of the following molecule: O=C1NCCN1CC(O)Cn1c2ccc(F)cc2c2cc(F)ccc21 (stereo not shown) [Compound 72]
A. 120 nM
